From: patent US20230331828A1

target: T1, Aβ1-28 (human); experiment: SPR (Biacore T200); antibody captured by anti-human Fc, Aβ1-28 as analyte; global 1:1 fit
T1 construct: Bought peptide (Bachem); also called Aß1-28 monomer; A131-28
T1 sequence (peptide, as listed by the source): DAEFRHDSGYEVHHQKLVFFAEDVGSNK
Could you please report measured koff for the items listed next?
Write the number in s⁻¹ without appending the unit.

q: Name the reported koff value associated with the binder h2726 (antibody, V domains shown, Humanized IgG mAb; Only the variable domains are tied to the construct; also called PB-0573) VH: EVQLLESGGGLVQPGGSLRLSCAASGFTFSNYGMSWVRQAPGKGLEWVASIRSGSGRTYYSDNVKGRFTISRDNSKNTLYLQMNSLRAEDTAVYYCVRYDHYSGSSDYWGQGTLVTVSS VL: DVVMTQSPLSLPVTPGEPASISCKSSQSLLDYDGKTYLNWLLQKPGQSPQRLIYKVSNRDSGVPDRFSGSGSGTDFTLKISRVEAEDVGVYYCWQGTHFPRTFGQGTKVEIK
a: 0.000555

q: Next binder up: h2931 (antibody, V domains shown, also called PB-0576) VH: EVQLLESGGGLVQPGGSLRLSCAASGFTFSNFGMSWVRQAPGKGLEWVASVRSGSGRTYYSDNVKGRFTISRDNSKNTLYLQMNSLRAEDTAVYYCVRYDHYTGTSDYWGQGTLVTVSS VL: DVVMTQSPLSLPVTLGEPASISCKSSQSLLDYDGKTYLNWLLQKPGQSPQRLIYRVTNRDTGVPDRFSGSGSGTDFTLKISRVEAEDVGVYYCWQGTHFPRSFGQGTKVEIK
a: 0.000412

q: Consider next the binder h2731 (antibody, V domains shown, Humanized IgG mAb; Only the variable domains are tied to the construct) VH: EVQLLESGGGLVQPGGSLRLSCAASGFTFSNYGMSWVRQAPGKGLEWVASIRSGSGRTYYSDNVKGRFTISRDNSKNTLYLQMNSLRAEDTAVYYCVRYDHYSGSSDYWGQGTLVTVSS VL: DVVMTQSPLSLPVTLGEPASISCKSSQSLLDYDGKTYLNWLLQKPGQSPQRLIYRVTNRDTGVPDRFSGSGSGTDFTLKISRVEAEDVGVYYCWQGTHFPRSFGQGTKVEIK in the same way.
a: 0.000595
